// provenance: patent US12077503B2

- System: pigweed (Amaranthus retroflexus)
- experimentalProtocol: Test A postemergence
- Format: in vivo
- particulars: Amaranthus retroflexus, post-emergence, 240 h, Postemergence, 31 g ai/ha; 0 is no effect, 100 is complete control; read-out: Pigweed plant response rating (0 to 100 scale)
For each record, write down the corresponding pest or weed control at 31 g/ha.

CN1C[C@H](c2ccc(Cl)c(F)c2)[C@@H](C(=O)Nc2cccc(F)c2F)C1=O [Compound 1265]	30%

Please go through the list and note pest or weed control at 31 g/ha for each compound.
1. CN1C[C@H](c2csc3c2CCC3)[C@@H](C(=O)Nc2cccc(F)c2F)C1=O [Compound 1278]
2. Cc1ccc([C@H]2CN(C)C(=O)[C@@H]2C(=O)Nc2c(F)c(F)c(F)c(F)c2F)cc1 [Compound 1292]
3. Cc1ccc([C@H]2CN(C)C(=O)[C@@H]2C(=O)Nc2ccccc2)cc1 [Compound 1291]
4. CN1C[C@H](c2ccc3c(c2)OC(F)(F)O3)[C@@H](C(=O)Nc2cnccc2C(F)(F)F)C1=O [Compound 1354]
5. CN1C[C@H](c2ccc3c(c2)OC(F)(F)O3)[C@@H](C(=O)Nc2ccccc2C(F)(F)F)C1=O [Compound 1352]
6. CN1C[C@H](c2ccc(Br)cc2)[C@@H](C(=O)Nc2ccc(F)c(F)c2F)C1=O [Compound 1393]
7. Cc1ccc([C@H]2CN(C)C(=O)[C@@H]2C(=O)Nc2cccc(F)c2C#N)cc1 [Compound 1189]

["0%", "0%", "0%", "0%", "0%", "40%", "0%"]

----------
Would you mind telling me the reported Plant response rating, Kochia of each entry?
- System: Kochia (Kochia scoparia)
- experimentalProtocol: Test A postemergence
- Type: in vivo
- particulars: Postemergence, 500 g ai/ha; 0 to 100 scale where 0 is no effect and 100 is complete control
Numbers only.

For orientation, consider the following solved cases.
O=C1NCC(c2cc(F)c(F)cc2F)C1C(=O)Nc1ccc(F)cc1F (racemic) [Compound 551]	0
CC(C)=CCN1CC(c2cccc(C(F)(F)F)c2)C(C(=O)Nc2cccc(F)c2F)C1=O (stereo not shown) [Compound 477]	0
O=C(Nc1ccccc1F)C1C(=O)N(CC=CBr)CC1c1cccc(C(F)(F)F)c1 (stereo not shown) [Compound 526]	0

Now turn to the next compound.
// recorded Plant response rating, Kochia for CN1CC(c2ccc(C(F)(F)F)cc2)C(C(=O)Nc2ccccc2S(C)(=O)=O)C1=O (stereo not shown) [Compound 624] : 60

----------
- Tested on: wheat (winter wheat, Triticum aestivum)
- experimentalProtocol: Test C preemergence
- Assay type: in vivo
- particulars: 125 g ai/ha, scale 0 to 100, 0 no effect, 100 complete control
- Description: […]
quantityName: Plant response rating, Wheat
Answers are plain numbers.

CN1CC(c2cccc(OC(F)F)c2)C(C(=O)Nc2ccccc2F)C1=O (stereo not shown)	75

Look at each compound and report its Plant response rating, Wheat.
1. CN1CC(c2cccc(C(F)(F)F)c2)C(C)(C(=O)Nc2ccccc2F)C1=O (stereo not shown)
2. CN1C[C@H](c2ccc(C(F)(F)F)cc2)[C@@H](C(=O)Nc2ccccc2F)C1=O
3. CN1CC(c2ccc(F)c(C(F)(F)F)c2)C(C(=O)Nc2cccc(F)c2F)C1=O (stereo not shown)

1: 50; 2: 70; 3: 65

----------
- System: barnyardgrass (Echinochloa crus-galli)
- experimentalProtocol: Test G Pre-Emergence Protocol
- Assay type: in vivo
- particulars: Echinochloa crus-galli, pre-emergence, 312 h, 15.625 g ai/ha, evaluated after 13 days, read-out: Barnyardgrass damage rating (100=total damage to plant; 0=no damage to plant)
- Excerpt: Seeds of corn (Zea mays), giant foxtail (Setaria faberi), barnyardgrass (Echinochloa crus-galli), ivy-leaved morning glory (Ipomoea hederacea), redroot pigweed (Amaranthus retroflexus) and velvetleaf (Abutilon theophrasti) were sown in standard soil in pots. […]
quantityName: pest or weed control at 15.625 g/ha (%)
One number for each entry, in %.

Solved entries (count: 7):
CN1C[C@H](c2ccc(F)c(F)c2)[C@@H](C(=O)Nc2cnccc2C(F)(F)F)C1=O (racemic)	0
CCOc1cc([C@@H]2CN(C)C(=O)[C@H]2C(=O)Nc2cccc(F)c2C)ccc1C(F)(F)F (racemic)	50
CN1C[C@@H](c2ccc(C(F)(F)F)cc2)[C@H](C(=O)Nc2cccnc2F)C1=O (racemic)	0
COc1cc(C2CN(C)C(=O)C2C(=O)Nc2cccc(F)c2F)cc(Cl)c1OC (centres unmarked)	40
CCOc1cc(C2CN(C)C(=O)C2C(=O)Nc2cccc(F)c2F)ccc1OC (centres unmarked)	30
CON1C[C@@H](c2cccc(C(F)(F)F)c2)[C@H](C(=O)Nc2cccc(F)c2F)C1=O (racemic)	20
Cc1cc(C2CN(C)C(=O)C2C(=O)Nc2cccc(F)c2F)cc(C)c1Cl (centres unmarked)	20

COc1c(F)cc(C2CN(C)C(=O)C2C(=O)Nc2cccc(F)c2F)cc1Cl (centres unmarked) yielded pest or weed control at 15.625 g/ha of 60

----------
- Test system: barnyardgrass (Echinochloa crus-galli)
- experimentalProtocol: Test C preemergence
- Assay type: in vivo
- particulars: 250 g ai/ha, scale 0 to 100, 0 no effect, 100 complete control
Exercise: state measured Plant response rating, Barnyardgrass for each of the compounds provided.

CN1CC(c2ccc(C(F)(F)F)c(F)c2)C(C(=O)Nc2ccccc2S(C)(=O)=O)C1=O (stereo not drawn) [Compound 397]	98
CN1C[C@H](c2ccc(C(F)(F)F)cc2)[C@@H](C(=O)Nc2ccccc2F)C1=O [Compound 622]	95

Please examine the following record next.
According to the records, this compound Cc1ccc(C2CN(C)C(=O)C2C(=O)Nc2cccc(F)c2F)cc1 (stereo not drawn) [Compound 662] displays Plant response rating, Barnyardgrass of 100

----------
- Test system: corn (Zea mays)
- experimentalProtocol: Test G Post-Emergence Protocol
- Assay type: in vivo
- particulars: Zea mays, post-emergence, 312 h, 250 g ai/ha, evaluated after 13 days, read-out: damage to plant, Corn (100=total damage to plant; 0=no damage to plant)
quantityName: plant injury at 250 g/ha (%)
Numbers only, in %.

The following compounds have reported results that may help.
CN1C[C@@H](c2ccc(C(F)(F)F)cc2)[C@H](C(=O)Nc2cc(F)ncn2)C1=O (racemic)	0
CN1C[C@@H](c2ccc(C(F)(F)F)cc2)[C@H](C(=O)Nc2sccc2C#N)C1=O (racemic)	20
Cc1cc(Cl)ccc1NC(=O)[C@H]1C(=O)N(C)C[C@@H]1c1ccc(C(F)(F)F)cc1 (racemic)	0
CN1C[C@@H](c2ccc(C(F)(F)F)cc2)[C@H](C(=O)Nc2cc(C(F)(F)F)n(C)n2)C1=O (racemic)	0

Value sought for every listed compound: plant injury at 250 g/ha.
1. CN1C[C@H](c2ccc(C(F)(F)F)cc2)[C@@H](C(=O)Nc2ccc(F)c(Cl)c2)C1=O (racemic)
2. CN1C[C@@H](c2ccc(C(F)(F)F)cc2)[C@H](C(=O)Nc2ccnc(C(F)(F)F)c2)C1=O (racemic)
3. Cc1ccc([C@H]2CN(C)C(=O)[C@@H]2C(=O)Nc2ccccc2F)cc1Cl (racemic)
4. COC(=O)c1cc([C@H]2CN(C)C(=O)[C@@H]2C(=O)Nc2ccccc2F)ccc1Cl (racemic)
5. CN1C[C@H](c2ccc(C(F)(F)F)cc2)[C@@H](C(=O)Nc2ccc(Cl)cc2[N+](=O)[O-])C1=O (racemic)
6. CN1C[C@H](c2ccc(C(F)(F)F)cc2)[C@@H](C(=O)Nc2nccc(C(F)(F)F)c2F)C1=O (racemic)

1. 10
2. 0
3. 60
4. 40
5. 0
6. 0

Hello, I would appreciate it if you could give plant injury at 250 g/ha for each entry below.
1. CN1C[C@@H](c2ccnc(C(F)(F)F)c2)[C@H](C(=O)Nc2cccc(F)c2F)C1=O (racemic)
2. Cc1cccc(NC(=O)[C@H]2C(=O)N(C)C[C@@H]2c2ccc(C(F)(F)F)cc2)n1 (racemic)
3. CN1C[C@@H](c2ccc(C(F)(F)F)cc2)[C@H](C(=O)Nc2ccc(Cl)nn2)C1=O (racemic)
4. CN1C[C@@H](c2ccc(C(F)(F)F)cc2)[C@H](C(=O)Nc2cc(F)nc(F)c2)C1=O (racemic)

80
10
50
0

----------
- System: rice (Oryra sativa)
- experimentalProtocol: Test B flooded paddy test
- Assay type: in vivo
- particulars: Oryza sativa, 360 h, Flood, 250 g ai/ha; visually evaluated after 13 to 15 d; read-out: Plant response rating, Rice (0 to 100 scale where 0 is no effect and 100 is complete control)
- Procedure: Plant species in the flooded paddy test selected from rice (Oryra sativa), sedge, umbrella (small-flower umbrella sedge, Cyperus difformis), ducksalad (Heteranthera limosa), and barnyardgrass (Echinochloa crus-galli) were grown to the 2-leaf stage for testing. […] Treated plants and controls were maintained in a greenhouse for 13 to 15 d, after which time all species were compared to controls and visually evaluated. […]
quantityName: pest or weed control at 250 g/ha
Please make sure the unit comes right after the number.

The following molecules have reported results that may help.
Cc1c(F)cccc1NC(=O)[C@H]1C(=O)N(C)C[C@@H]1c1ccc(C(F)(F)F)cc1	0%
CN1C[C@H](c2cccc(C(F)(F)F)c2)[C@@H](C(=O)Nc2ccc(F)nc2F)C1=O	0%
Cc1ccc([C@H]2CN(C)C(=O)[C@@H]2C(=O)Nc2ccc(F)c(F)c2F)cc1	45%
Cc1ccc([C@H]2CN(C)C(=O)[C@@H]2C(=O)Nc2ccc(F)nc2F)cc1	0%
Cc1c(F)ccc([C@H]2CNC(=O)[C@@H]2C(=O)Nc2ccc(F)cc2F)c1F	0%
CN1C[C@H](c2ccc(Br)cc2)[C@@H](C(=O)Nc2ccc(F)c(F)c2F)C1=O	55%

Would you mind giving pest or weed control at 250 g/ha for every molecule in the list below?
1. CN1C[C@H](c2ccc(OC(F)F)cc2)[C@@H](C(=O)Nc2ccccc2F)C1=O
2. CC(C)Oc1ccc([C@H]2CN(C)C(=O)[C@@H]2C(=O)Nc2ccccc2F)cc1F

1: 0%; 2: 20%
